# TGT: T1, Wild type CD117 purified protein (human, UniProt P10721 26-520, limits assumed)
# T1 construct: Protein used in BLI/kinetics and cryo-EM; also called wt CD117; Wt CD117
# PROTOCOL: monovalent KD, CD117 titrated (FIGS. 73A-73E)
VALUE_KIND: koff
Quote the value and follow it with the unit of measurement.

// known answers, use as guide
ABTx206 (antibody, human IgG1, V domains shown) VH: EVQLVESGGGLVQPGRSLRLSCAASGFTFDDYAMHWVRQAPGKGLEWVSGISWNSGTIGYADSVKGRFTNSRDNAKNSLYLEMNSLRAEDTALYYCAKDSPPGYCSSASCYGAFDIRGQGTMVTVSS VL: DIVMTQSPSFLSASVGDRVTITCRASQGISSYLAWYQQKPGKAPKLLIYAASTLQNGVPSRFSGSGSGTDFTLTITSLQPEDFATYYCQQSYSTPYTFGQGTKLEIK    5.07e-05 s⁻¹
ABTx196 (antibody, human IgG1, V domains shown) VH: EVQLVESGGGLVQPGRSLRLSCAASGFTFDDYAMHWVRQAPGKGLEWVSGISWNSGTIGYADSVKGRFTNSRDNAKNSLYLEMNSLRAEDTALYYCAKDSPPGYCSSASCYGAFDIWGQGTMVTVSS VL: DVVMTQSPGTLSLSPGERATLSCRASQSVSSSYLAWYQQKPGQAPRLLIYGASSRATGIPDRFSGSGSGTDFTLTISRLEPEDFAVYYCQQSETCLTFGGGTKLEIK    0.000691 s⁻¹

Would you kindly look at the next entry?
Briefly, koff measured for ABTx198 (antibody, human IgG1, V domains shown) VH: EVQLVESGGGLVQPGRSLRLSCAASGFTFDDYAMHWVRQAPGKGLEWVSGISWNSGTIGYADSVKGRFTNSRDNAKNSLYLEMNSLRAEDTALYYCAKDSPPGYCASASCYGAFDIWGQGTMVTVSS VL: DVVMTQSPGTLSLSPGERATLSCRASQSVSSSYLAWYQQKPGQAPRLLIYGASSRATGIPDRFSGSGSGTDFTLTISRLEPEDFAVYYCQQDSLGLTFGGGTKLEIK : 8.74e-05 s⁻¹

All values here come from patent US20260166085A1.
